Species on record: Oryctolagus cuniculus
test_method_notes: Percentage inhibition of Transglutaminase activity in rabbit at 0.1 nM.
Parameters: scale not given: the % may be the effect or the level left
property_label: Control (%)
I only need the number, in %, no unit after it.

Example entries and their recorded answers appear below.
compound | Control (%)
Cc1cc2c(cc1-c1ccc3cc(C(=O)O)ccc3c1)C(C)(C)CCC2(C)C | 37
CC1(C)CCC(C)(C)c2cc3cc(-c4ccc(C(=O)O)cc4)ccc3cc21 | 12

Give its Control value. Item: Cc1c(-c2ccc3c(c2)C(C)(C)CCC3(C)C)ccc2cc(C(=O)O)ccc12
114

Further, for CC1(C)CCC(C)(C)c2cc(C3C[C@H]3c3ccc(C(=O)O)cc3)ccc21 (stereo not given in full) ?
130

Further, for C/C(=C\c1ccc2c(c1)C(C)(C)CCC2(C)C)c1ccc(C(=O)O)cc1 ?
10

Values compiled from ChEMBL document CHEMBL1124521.
